- target_system: hTRPV4 (full-length; hTRPV4WT) (Homo sapiens, UniProt Q9HBA0, F549A)
- Sequence (Q9HBA0 whole entry F549A): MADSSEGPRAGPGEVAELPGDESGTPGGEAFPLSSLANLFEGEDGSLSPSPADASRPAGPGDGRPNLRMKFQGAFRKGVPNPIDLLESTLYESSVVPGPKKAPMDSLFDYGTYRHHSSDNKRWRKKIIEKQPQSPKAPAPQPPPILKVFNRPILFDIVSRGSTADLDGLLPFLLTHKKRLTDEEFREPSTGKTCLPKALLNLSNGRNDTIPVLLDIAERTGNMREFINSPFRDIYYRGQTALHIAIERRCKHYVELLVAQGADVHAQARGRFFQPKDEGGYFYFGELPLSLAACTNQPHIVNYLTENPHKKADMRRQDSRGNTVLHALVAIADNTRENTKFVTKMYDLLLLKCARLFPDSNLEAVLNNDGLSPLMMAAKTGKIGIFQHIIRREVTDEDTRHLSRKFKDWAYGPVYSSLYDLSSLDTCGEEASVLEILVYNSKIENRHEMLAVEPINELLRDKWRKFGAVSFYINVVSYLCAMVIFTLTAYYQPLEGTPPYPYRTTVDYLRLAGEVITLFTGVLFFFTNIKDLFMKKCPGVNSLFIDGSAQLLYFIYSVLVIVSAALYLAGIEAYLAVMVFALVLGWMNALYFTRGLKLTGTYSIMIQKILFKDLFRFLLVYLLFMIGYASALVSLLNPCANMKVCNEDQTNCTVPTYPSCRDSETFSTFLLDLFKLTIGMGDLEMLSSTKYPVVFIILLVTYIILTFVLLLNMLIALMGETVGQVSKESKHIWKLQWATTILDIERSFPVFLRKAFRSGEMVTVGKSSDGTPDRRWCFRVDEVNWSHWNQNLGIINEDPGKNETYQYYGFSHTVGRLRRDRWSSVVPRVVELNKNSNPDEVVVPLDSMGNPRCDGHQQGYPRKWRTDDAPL
- assay_notes: calcium flux
parameter_measured: EC50 (nM)
Give the value, in units of nM, as a plain number.

Supply measured EC50 of CC(C)C[C@H](NC(=O)c1cc2ccccc2s1)C(=O)N1CCN(C(=O)[C@H](CO)NS(=O)(=O)c2ccc(Cl)cc2Cl)CC1 [GSK1016790A] in your reply.
9.8

====

- target_system: hTRPV4 (full-length; hTRPV4WT) (Homo sapiens, UniProt Q9HBA0, N474A)
- Sequence (Q9HBA0 whole entry N474A): as the sequence (Q9HBA0 whole entry F549A) above, with N474A, A549F counted along it
- assay_notes: calcium flux
parameter_measured: pEC50
Hey, just a heads up that pEC50 is the negative log base 10 of the concentration in molar.

Quote hTRPV4 (full-length; hTRPV4WT) (Homo sapiens, UniProt Q9HBA0, N474A) pEC50 for entry CC(C)C[C@H](NC(=O)c1cc2ccccc2s1)C(=O)N1CCN(C(=O)[C@H](CO)NS(=O)(=O)c2ccc(Cl)cc2Cl)CC1 [GSK1016790A] .
6.27
